Data provenance: paper PMC6154314

# experiment-notes: Lipophilicity, octanol/water partition coefficient (LogP)
# Type: physicochemical
In this section, each of the molecules is paired with its reported logP.

{"molecule": "CC(=O)OC[C@H]1O[C@@H](S[C@@H]2CC(=O)[C@@H]3OC[C@H]2O3)[C@H](OC(C)=O)[C@@H](OC(C)=O)[C@H]1OC(C)=O", "logP": -1.13}
{"molecule": "CC(=O)OC[C@H]1O[C@@H](O[C@H]2[C@H](OC(C)=O)[C@@H](OC(C)=O)[C@H](S[C@@H]3CC(=O)[C@@H]4OC[C@H]3O4)O[C@@H]2COC(C)=O)[C@H](OC(C)=O)[C@@H](OC(C)=O)[C@H]1OC(C)=O", "logP": -2.18}
{"molecule": "CC1(C)O[C@H]2O[C@H](C3CO3)[C@H](O)[C@H]2O1 (stereo partly shown)", "logP": -0.39}
{"molecule": "OC[C@@]12CO[C@H](O1)[C@H](O)[C@@H](O)[C@H]2O", "logP": -2.38}
{"molecule": "NC(=S)NN=C1C=C[C@H]2CO[C@@H]1O2", "logP": -0.18}
{"molecule": "NC(=S)NN=C1CC[C@H]2CO[C@@H]1O2 [Compound 14A]", "logP": -0.29}
{"molecule": "Nc1nnc(S[C@@H]2CC(=O)[C@@H]3OC[C@H]2O3)s1", "logP": 1.37}

---

# experiment-notes: Lipophilicity, octanol/water partition coefficient (LogP)
# Format: physicochemical
Mark T for reported logP of -2 or greater; mark F for anything smaller.

{"compound": "CS(=O)(=O)NC[C@H]1OC[C@H](O)[C@@H](O)[C@@H]1O [Compound 5]", "classification": "F"}
{"compound": "O=C1C[C@@H](SC2=NCCS2)[C@H]2CO[C@@H]1O2 [Compound 26]", "classification": "T"}
{"compound": "CC(=O)N[C@H]1CO[C@H](CO)[C@@H](O)[C@@H]1O [Compound 10]", "classification": "F"}
{"compound": "OC1C(O)C(O)C2(CO2)C(O)C1O (stereo not drawn) [Compound 4, 2-C-methylene-myo-inositol oxide]", "classification": "F"}
{"compound": "O=[N+]([O-])CC1(O)O[C@H](CO)[C@@H](O)[C@H](O)[C@H]1O (stereo partly drawn) [Compound 13, 1-C-nitromethyl-D-gluco-pyranose]", "classification": "F"}
{"compound": "O=C(O)c1ccccc1S[C@@H]1CC(=O)[C@@H]2OC[C@H]1O2 [Compound 8]", "classification": "T"}
{"compound": "COCC(OC(C)=O)[C@H]1O[C@@H]2OC(C)(C)O[C@@H]2[C@H]1OC(C)=O (stereo partly drawn) [Compound 12]", "classification": "T"}
{"compound": "CC(=O)OC[C@H]1O[C@@H](S[C@@H]2CC(=O)[C@@H]3OC[C@H]2O3)[C@H](OC(C)=O)[C@@H](OC(C)=O)[C@@H]1OC(C)=O [Compound 6]", "classification": "T"}

---

Quick record: MIC50, Staphylococcus aureus.

{"molecule": "O=C(O)c1ccccc1S[C@@H]1CC(=O)[C@@H]2OC[C@H]1O2 [Compound 8]", "MIC50": "> 10000 µM"}
{"molecule": "NC(=S)NN=C1C=C[C@H]2CO[C@@H]1O2 [Compound 14]", "MIC50": "> 5000 µM"}
{"molecule": "COCC(OC(C)=O)[C@H]1O[C@@H]2OC(C)(C)O[C@@H]2[C@H]1OC(C)=O (stereo partly shown) [Compound 12]", "MIC50": "> 10000 µM"}
{"molecule": "CC(=O)N[C@H]1CO[C@H](CO)[C@@H](O)[C@@H]1O [Compound 10]", "MIC50": "> 10000 µM"}
{"molecule": "CC(=O)OC[C@H]1O[C@@H](S[C@@H]2CC(=O)[C@@H]3OC[C@H]2O3)[C@H](OC(C)=O)[C@@H](OC(C)=O)[C@@H]1OC(C)=O [Compound 6]", "MIC50": "2500 µM"}
{"molecule": "NC(=S)NN=C1CC[C@H]2CO[C@@H]1O2 [Compound 14A]", "MIC50": "> 1250 µM"}
{"molecule": "O=C1C[C@@H](SC2=NCCS2)[C@H]2CO[C@@H]1O2 [Compound 26]", "MIC50": "> 2500 µM"}
{"molecule": "CS(=O)(=O)NC[C@H]1OC[C@H](O)[C@@H](O)[C@@H]1O [Compound 5]", "MIC50": "> 2000 µM"}
{"molecule": "CC(=O)OC[C@H]1O[C@@H](O[C@H]2[C@H](OC(C)=O)[C@@H](OC(C)=O)[C@H](S[C@@H]3CC(=O)[C@@H]4OC[C@H]3O4)O[C@@H]2COC(C)=O)[C@H](OC(C)=O)[C@@H](OC(C)=O)[C@H]1OC(C)=O [Compound 16]", "MIC50": "> 5000 µM"}
{"molecule": "Nc1nnc(S[C@@H]2CC(=O)[C@@H]3OC[C@H]2O3)s1 [Compound 23]", "MIC50": "> 625 µM"}

---

# Test system: Staphylococcus aureus
In this section, each of the compounds is paired with its reported MIC50.

{"compound": "CC(=O)OC[C@H]1O[C@@H](O[C@H]2[C@H](OC(C)=O)[C@@H](OC(C)=O)[C@H](S[C@@H]3CC(=NNC(N)=S)[C@@H]4OC[C@H]3O4)O[C@@H]2COC(C)=O)[C@H](OC(C)=O)[C@@H](OC(C)=O)[C@H]1OC(C)=O [Compound 16A]", "assay-target": "Staphylococcus aureus", "MIC50": "> 1.25 mM"}
{"compound": "O=[N+]([O-])CC1(O)O[C@H](CO)[C@@H](O)[C@H](O)[C@H]1O (stereo partly drawn)", "assay-target": "Staphylococcus aureus", "MIC50": "> 10 mM"}
{"compound": "O=C1C[C@@H](S[C@@H]2O[C@H](CO)[C@@H](O)[C@H](O)[C@H]2O)[C@H]2CO[C@@H]1O2", "assay-target": "Staphylococcus aureus", "MIC50": "> 10 mM"}
